Reference for the values: paper PMC10397247

measurement_target: T1, P6-AA-1HGe-W
T1 chain: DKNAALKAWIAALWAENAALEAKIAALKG
measurement_notes: two-hybrid library CCmax;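 note: natural log of median RNA to DNA barcode read ratio; higher means stronger binding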
experimental_setup: mean of both orientations
Hi there, I'd appreciate the recorded interaction score for every entry that follows.

Per the records, this binder ( DENAALEAQIAALQAKNAALKAEIAALEG [P5-AA-1HGe-Q] ) has interaction score equal to 1.97

Per the records, this binder ( DENAALEAYIAALYAKNAALKAEIAALEG [P5-AA-1HGe-Y] ) has interaction score equal to 1.32

Per the records, this binder ( DENAALEARIAALRAKNAALKAEIAALEG [P5-AA-1HGe-R] ) has interaction score equal to 1.25

Per the records, this binder ( DENAALEAHIAALHAKNAALKAEIAALEG [P5-AA-1HGe-H] ) has interaction score equal to 0.42

Per the records, this binder ( DENAALEASIAALSAKNAALKAEIAALEG [P5-AA-1HGe-S] ) has interaction score equal to 0.993
